Biological target: panel of 255 wild-type kinases (Homo sapiens)
Sequence (Q13470 1-666): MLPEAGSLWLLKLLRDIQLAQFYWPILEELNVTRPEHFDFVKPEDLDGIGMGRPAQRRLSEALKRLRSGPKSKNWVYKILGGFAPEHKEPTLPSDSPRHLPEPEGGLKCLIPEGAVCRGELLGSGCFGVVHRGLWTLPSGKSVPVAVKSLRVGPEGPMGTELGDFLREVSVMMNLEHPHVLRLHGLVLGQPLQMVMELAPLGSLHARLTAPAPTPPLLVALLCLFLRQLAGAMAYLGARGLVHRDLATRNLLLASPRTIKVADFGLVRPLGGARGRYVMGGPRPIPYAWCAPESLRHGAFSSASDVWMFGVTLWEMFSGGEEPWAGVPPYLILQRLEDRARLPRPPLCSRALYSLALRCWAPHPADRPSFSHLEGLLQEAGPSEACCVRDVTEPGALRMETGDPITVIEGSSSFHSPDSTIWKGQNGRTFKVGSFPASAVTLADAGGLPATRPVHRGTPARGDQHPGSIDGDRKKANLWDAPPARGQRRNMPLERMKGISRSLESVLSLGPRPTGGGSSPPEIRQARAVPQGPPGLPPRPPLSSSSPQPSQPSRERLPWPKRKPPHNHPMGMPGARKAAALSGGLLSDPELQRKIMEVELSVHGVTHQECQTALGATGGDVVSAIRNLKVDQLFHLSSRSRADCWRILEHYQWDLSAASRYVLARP
Test: Kinase panel profiling at 1 µmol/L (MSA or IMAP), percentage inhibition
Assay type: biochemical
Details: kinase TNK1; 1 µmol/L single concentration; read-out: %-inhibition at 1 µmol/L, TNK1
QUANTITY MEASURED: inhibition at 1 µM

CO[C@]1(C(=O)N[C@@H](C)c2ccc(-n3cc(F)cn3)nc2)CC[C@H](c2nc(C)cc(Nc3cc(C)[nH]n3)n2)CC1 [pralsetinib] :: 71%
COC(=O)N[C@@H](C)CNc1nccc(-c2cn(C(C)C)nc2-c2cc(Cl)cc(NS(C)(=O)=O)c2F)n1 [encorafenib] :: -3.4%
CCN1C(=O)N(c2c(F)c(OC)cc(OC)c2F)Cc2cnc3[nH]c(CN4CCOCC4)cc3c21 [pemigatinib] :: 5%

Here is another compound to look at.
-- ask inhibition at 1 µM lookup needed for COc1cc2ncnc(Nc3ccc(F)c(Cl)c3)c2cc1NC(=O)/C=C/CN1CCCCC1 [dacomitinib] , thanks.
-- reply 35%

====

Biological target: panel of 255 wild-type kinases (Homo sapiens, UniProt P54646)
Sequence (P54646 whole entry): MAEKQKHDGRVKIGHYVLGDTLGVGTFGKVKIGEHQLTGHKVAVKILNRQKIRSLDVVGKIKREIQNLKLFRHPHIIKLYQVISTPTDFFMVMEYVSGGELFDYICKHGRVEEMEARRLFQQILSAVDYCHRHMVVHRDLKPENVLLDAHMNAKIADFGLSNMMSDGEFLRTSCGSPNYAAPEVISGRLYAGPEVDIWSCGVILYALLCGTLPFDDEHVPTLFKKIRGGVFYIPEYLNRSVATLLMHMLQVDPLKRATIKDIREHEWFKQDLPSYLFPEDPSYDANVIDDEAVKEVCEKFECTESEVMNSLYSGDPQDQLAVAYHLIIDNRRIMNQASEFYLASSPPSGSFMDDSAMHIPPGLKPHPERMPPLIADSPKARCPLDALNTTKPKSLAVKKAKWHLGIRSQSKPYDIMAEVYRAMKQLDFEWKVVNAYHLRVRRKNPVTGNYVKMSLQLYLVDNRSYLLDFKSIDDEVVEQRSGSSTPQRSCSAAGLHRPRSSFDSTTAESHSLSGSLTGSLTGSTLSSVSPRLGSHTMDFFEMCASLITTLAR
Assay: Kinase panel profiling at 1 µmol/L (MSA or IMAP), percentage inhibition
Assay type: biochemical
Conditions: AMPKα2/β1/γ1 kinase assay; 1 µmol/L single concentration; read-out: %-inhibition AMPKα2/β1/γ1
QUANTITY MEASURED: inhibition at 1 µM (%)
Give bare numbers, in %.

C=CC(=O)N1CCC([C@@H]2CCNc3c(C(N)=O)c(-c4ccc(Oc5ccccc5)cc4)nn32)CC1 :: -5

List the reported inhibition at 1 µM of each compound below.
1. CCn1c(=O)c(-c2cc(NC(=O)Nc3ccccc3)c(F)cc2Br)cc2cnc(NC)cc21
2. COC(=O)N[C@@H](C)CNc1nccc(-c2cn(C(C)C)nc2-c2cc(Cl)cc(NS(C)(=O)=O)c2F)n1

-- reply
1. -22
2. 0.723
